# System: Streptomyces sp.
# assay-protocol: Antimicrobial activity against Streptomyces sp. S001 at 20 microg/disk by disc diffusion assay
# Format: functional, organism-based
# test-parameters: dose 20.0 µg/disk
Activity calls are given as the source filed them. No cut-off for these calls is given here.

given-smiles: CC[C@H]1[C@@H]2C=C[C@H](/C=C/C=C/C(N)=O)[C@H](/C=C/C=C/C(=O)C3=C(O)[C@H](CCC(=O)O)NC3=O)[C@H]2C[C@H]1C
target-under-test: Streptomyces sp.
Activity: inactive
--
given-smiles: C[C@@H]1C[C@H]2[C@@H](C=C[C@@H]3[C@H]4C/C=C\C(=O)NCC[C@H](O)[C@@H]5NC(=O)C(=C5O)C(=O)/C=C/[C@@H]4C[C@@H]32)[C@@H]1C(=O)CO
target-under-test: Streptomyces sp.
Activity: inactive
--
given-smiles: CC(=O)[C@H]1[C@@H]2C=C[C@H](/C=C/C=C/C(N)=O)[C@H](/C=C/C=C/C(=O)C3=C(O)[C@H](CCC(=O)O)NC3=O)[C@H]2C[C@H]1C
target-under-test: Streptomyces sp.
Activity: inactive
